Tested on: HIV
assayNotes: MT4 assay: antiviral HIV activity in MT-4 cells
Type: cell-based
conditionLabel: Human immunodeficiency virus 1, MT4, 96 h, read-out: HIV MT4 Assay IC50 (μM), HTLV-1 transformed cell line MT-4; read-out 96 hours later with cell titer glo; 10 point dose response
So basically: is IC50 under 1 µM? Then Met. Not under? Then Not met.

Determine if `Cc1nc2c(ccn2Cc2ccc(F)c(F)c2)c(-c2ccc3c(c2)CCCO3)c1[C@@H](OC(C)(C)C)C(=O)O` shows IC50 strictly lower than 1 µM.
Not met

Determine if Cc1nc2c(ccn2Cc2cccc(Cl)c2F)c(-c2ccc3c(c2)CCCO3)c1C(OC(C)(C)C)C(=O)O (stereo not shown) shows IC50 strictly lower than 1 µM.
Met

Determine if Cc1nc2c(ccn2Cc2cccc(F)c2F)c(-c2cc(F)c3c(c2C)NCCO3)c1[C@H](OC(C)(C)C)C(=O)O (atropisomer, axis not shown; (M)) shows IC50 strictly lower than 1 µM.
Met

---
Determine if Cc1ccc(-c2c(C(OC(C)(C)C)C(=O)O)c(C)nc3c2ccn3Cc2ccc(F)cc2C)cc1 (stereo not shown) shows IC50 strictly lower than 1 µM.
Met

Determine if `Cc1ccc(-c2c([C@@H](OC(C)(C)C)C(=O)O)c(C)nc3c2ccn3Cc2cc(F)c(F)c(F)c2)cc1` shows IC50 strictly lower than 1 µM.
Not met

Determine if `Cc1nc2c(ccn2Cc2ccc(F)c(F)c2)c(-c2ccc(F)c(Cl)c2)c1[C@H](OC(C)(C)C)C(=O)O` shows IC50 strictly lower than 1 µM.
Not met

====

System: HIV
assayNotes: MT4 assay: antiviral HIV activity in MT-4 cells
Type: cell-based
conditionLabel: Human immunodeficiency virus 1, MT4, 96 h, read-out: HIV MT4 Assay IC50 (μM), HTLV-1 transformed cell line MT-4; read-out 96 hours later with cell titer glo; 10 point dose response
Some compounds, each annotated with its measured log10 IC50.
Transform log10 | Measure IC50 | Unit µM

Some compounds with recorded log10 IC50:
compound Cc1nc2c(ccn2Cc2ccc(OC(F)(F)F)cc2)c(-c2ccc3c(c2)CCCO3)c1C(OC(C)(C)C)C(=O)O (stereo not shown) , log10 IC50 observed: -0.17

compound Cc1nc2c(ccn2CCc2ccc(F)cc2)c(-c2ccc3c(c2)CCCO3)c1C(OC(C)(C)C)C(=O)O (stereo not shown) , log10 IC50 observed: -0.24

compound `Cc1nc2c(ccn2Cc2ccc(F)cc2Cl)c(-c2ccc3c(c2)CCCO3)c1[C@H](OC(C)(C)C)C(=O)O` , log10 IC50 observed: -1.52

---
compound Cc1nc2c(ccn2Cc2c(F)cccc2Cl)c(-c2ccc3c(c2)CCCO3)c1C(OC(C)(C)C)C(=O)O (stereo not shown) , log10 IC50 observed: -1.60

compound Cc1nc2c(ccn2Cc2cccc(F)c2F)c(-c2ccc3c(c2)CCCO3)c1C(OC(C)(C)C)C(=O)O (stereo not shown) , log10 IC50 observed: -1.22

compound COc1ccc(F)c(F)c1Cn1ccc2c(-c3ccc(C)cc3)c(C(OC(C)(C)C)C(=O)O)c(C)nc21 (stereo not shown) , log10 IC50 observed: -1.00

compound Cc1nc2c(c(-c3ccc4c(c3C)CCCO4)c1C(OC(C)(C)C)C(=O)O)c1ccccc1n2C (stereo not shown) , log10 IC50 observed: -1.30

compound Cc1nc2c(ccn2Cc2ccc(F)c(F)c2)c(-c2ccc3c(c2)CCCO3)c1C(OC(C)(C)C)C(=O)O (stereo not shown) , log10 IC50 observed: -1.05

compound `Cc1cc(F)ccc1Cn1ccc2c(-c3ccc4c(c3C)CCCO4)c([C@H](OC(C)(C)C)C(=O)O)c(C)nc21` , log10 IC50 observed: -2.52

compound Cc1ccc(-c2c(C(OC(C)(C)C)C(=O)O)c(C)nc3c2ccn3Cc2cc(F)cc(F)c2)cc1 (stereo not shown) , log10 IC50 observed: -0.46

compound Cc1nc2c(ccn2Cc2c(F)cc(F)cc2F)c(-c2ccc3c(c2)CCCO3)c1C(OC(C)(C)C)C(=O)O (stereo not shown) , log10 IC50 observed: -1.28

compound Cc1nc2c(ccn2[C@@H](C)c2ccc(F)cc2)c(-c2ccc3c(c2)CCCO3)c1C(OC(C)(C)C)C(=O)O (stereo partly shown) , log10 IC50 observed: -0.91

compound `Cc1ccc(-c2c([C@H](OC(C)(C)C)C(=O)O)c(C)nc3c2ccn3Cc2cc(F)ccc2F)cc1` , log10 IC50 observed: -0.97

compound Cc1ccc(-c2c(C(OC(C)(C)C)C(=O)O)c(C)nc3c2ccn3Cc2cc(Cl)ccc2F)cc1 (stereo not shown) , log10 IC50 observed: -0.64

compound Cc1nc2c(ccn2Cc2ccccc2)c(-c2ccc3c(c2)CCCO3)c1C(OC(C)(C)C)C(=O)O (stereo not shown) , log10 IC50 observed: -1.08

compound `Cc1ccc(-c2c([C@H](OC(C)(C)C)C(=O)O)c(C)nc3c2ccn3Cc2ccc(F)c(F)c2)cc1` , log10 IC50 observed: -1.00

compound `Cc1nc2c(ccn2Cc2ccc(F)cc2Cl)c(-c2ccc3c(c2)CCCO3)c1[C@@H](OC(C)(C)C)C(=O)O` , log10 IC50 observed: 1.70

compound `Cc1ccc(-c2c([C@H](OC(C)(C)C)C(=O)O)c(C)nc3c2ccn3Cc2ccccc2F)cc1` , log10 IC50 observed: -0.97

compound Cc1ccc(-c2c(C(OC(C)(C)C)C(=O)O)c(C)nc3c2ccn3Cc2ccc(Cl)c(F)c2)cc1 (stereo not shown) , log10 IC50 observed: -0.44

compound Cc1ccc(-c2c(C(OC(C)(C)C)C(=O)O)c(C)nc3c2ccn3Cc2ccc(F)c(F)c2)cc1 (stereo not shown) , log10 IC50 observed: -0.70

compound Cc1nc2c(ccn2Cc2cccc(F)c2F)c(-c2ccc3c(c2C)NCCO3)c1[C@H](OC(C)(C)C)C(=O)O (atropisomer, axis not shown; (M)) , log10 IC50 observed: -1.89

====

System: HIV
assayNotes: MT4 assay: antiviral HIV activity in MT-4 cells
Type: cell-based
conditionLabel: Human immunodeficiency virus 1, MT4, 96 h, read-out: HIV MT4 Assay IC50 (μM), HTLV-1 transformed cell line MT-4; read-out 96 hours later with cell titer glo; 10 point dose response
outcomeMeasure: IC50 (µM)
The reply should contain only the number, in µM.

Some molecules with recorded IC50:
molecule Cc1nc2c(ccn2Cc2ccccc2F)c(-c2ccc3c(c2)CCCO3)c1C(OC(C)(C)C)C(=O)O (stereo not drawn) , IC50 observed: 0.068

molecule Cc1cc(F)ccc1Cn1ccc2c(-c3ccc4c(c3C)NCCO4)c([C@H](OC(C)(C)C)C(=O)O)c(C)nc21 (atropisomer, axis not shown; (M)) , IC50 observed: 0.014

molecule Cc1ccc(Cn2ccc3c(-c4ccc5c(c4)CCCO5)c(C(OC(C)(C)C)C(=O)O)c(C)nc32)cc1F (stereo not drawn) , IC50 observed: 0.42

molecule `COc1ccc(-c2c([C@H](OC(C)(C)C)C(=O)O)c(C)nc3c2ccn3Cc2ccc(F)c(F)c2)cc1C` , IC50 observed: 0.81

molecule Cc1cc(Cn2ccc3c(-c4ccc5c(c4)CCCO5)c(C(OC(C)(C)C)C(=O)O)c(C)nc32)ccc1F (stereo not drawn) , IC50 observed: 0.07

---
molecule Cc1ccc(-c2c(C(OC(C)(C)C)C(=O)O)c(C)nc3c2ccn3Cc2c(F)cc(F)cc2F)cc1 (stereo not drawn) , IC50 observed: 0.12

molecule `Cc1nc2c(ccn2Cc2ccc(F)c(F)c2)c(-c2ccc3c(c2)C(C)(C)CO3)c1[C@H](OC(C)(C)C)C(=O)O` , IC50 observed: 2.86

molecule COc1ccc(Cn2ccc3c(-c4ccc5c(c4)CCCO5)c(C(OC(C)(C)C)C(=O)O)c(C)nc32)cc1C(F)(F)F (stereo not drawn) , IC50 observed: 0.37

molecule `Cc1ccc(-c2c([C@@H](OC(C)(C)C)C(=O)O)c(C)nc3c2ccn3[C@H](C)c2ccc(F)cc2)cc1` , IC50 observed: 0.71

====

Some compounds, each annotated with its measured IC50.
System: HIV
assayNotes: MT4 assay: antiviral HIV activity in MT-4 cells
Format: cell-based
conditionLabel: Human immunodeficiency virus 1, MT4, 96 h, read-out: HIV MT4 Assay IC50 (μM), HTLV-1 transformed cell line MT-4; read-out 96 hours later with cell titer glo; 10 point dose response
The reply should contain only the number, in µM.

compound `Cc1ccc(-c2c([C@H](OC(C)(C)C)C(=O)O)c(C)nc3c2ccn3[C@H](C)c2ccc(F)cc2)cc1` , IC50 observed: 0.1

compound Cc1nc2c(c3c(n2C2CC2)CCCC3)c(-c2ccc3c(c2C)CCCO3)c1C(OC(C)(C)C)C(=O)O (stereo not shown) , IC50 observed: 0.06

compound Cc1ccc(-c2c(C(OC(C)(C)C)C(=O)O)c(C)nc3c2ccn3Cc2ccc(F)cc2F)cc1 (stereo not shown) , IC50 observed: 0.125

---
compound Cc1ccc(-c2c(C(OC(C)(C)C)C(=O)O)c(C)nc3c2ccn3Cc2cc(F)ccc2F)cc1 (stereo not shown) , IC50 observed: 0.182

compound COc1cccc(Cn2ccc3c(-c4ccc5c(c4)CCCO5)c(C(OC(C)(C)C)C(=O)O)c(C)nc32)c1 (stereo not shown) , IC50 observed: 0.41

compound COc1ccc(Cn2ccc3c(-c4ccc5c(c4)CCCO5)c(C(OC(C)(C)C)C(=O)O)c(C)nc32)cc1 (stereo not shown) , IC50 observed: 0.12
